# Target Desc: hS1P1 receptor (Homo sapiens, UniProt P21453)
# Construct: host or cells: U2OS
# Sequence (P21453 whole entry): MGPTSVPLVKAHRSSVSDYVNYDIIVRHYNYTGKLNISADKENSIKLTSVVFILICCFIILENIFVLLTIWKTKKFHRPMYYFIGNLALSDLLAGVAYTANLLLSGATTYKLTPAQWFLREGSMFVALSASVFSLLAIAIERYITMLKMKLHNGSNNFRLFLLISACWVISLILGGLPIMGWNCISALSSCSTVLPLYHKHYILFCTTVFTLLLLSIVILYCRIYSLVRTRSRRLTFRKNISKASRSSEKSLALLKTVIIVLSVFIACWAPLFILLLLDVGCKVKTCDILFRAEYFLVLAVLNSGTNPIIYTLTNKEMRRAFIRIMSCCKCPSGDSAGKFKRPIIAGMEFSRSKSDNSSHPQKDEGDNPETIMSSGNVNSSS
# Protocol Text: hS1P1 receptor internalization assay (cell imaging-based, hS1P1-eGFP U2OS cells)
# Study Conditions: 1 h; U2OS cell line expressing hS1P1-eGFP; efficacy (Max); compounds incubated at 37° C. for one hour; read-out: hS1P1 Receptor Internalization (biolimaging) Max (%)
# Protocol: The activity of compounds of the invention was determined by a cell imaging-based assay measuring the degree of hS1P1 receptor internalization and a Ca^2+ mobilization assay measuring the level of S1P receptor activation. […] This event was detected by an automated microscope, ArrayScan (Thermo Scientific Cellomics, Pittsburg), and the degree of receptor internalization is quantitated by counting green fluorescent GFP-containing endosomes per cell. […]
Counter-ions that a name gives are not always drawn.
Property: Emax (%)

# example entries with known answers
Hello, please tell me recorded Emax for this one: Nc1cc(CN2CC(C(=O)O)C2)ccc1-c1nc2ccc(C3(c4ccccc4)CC3)nc2s1 [Example 46]
99

Hello, please tell me recorded Emax for this one: O=C(O)C1CN(Cc2ccc(-c3nc4cnc(C5(c6ccccc6)CC5)cc4s3)c(F)c2)C1 [Example 45, trifluoroacetic acid salt]
103

Hello, please tell me recorded Emax for this one: O=C(O)C1CN(Cc2ccc(-c3nc4ccc(C5(c6ccccc6F)CC5)nc4s3)c(F)c2)C1 [Example 38]
111

Hello, please tell me recorded Emax for this one: O=C(O)C1CN(Cc2ccc(-c3nc4ccc(C5(c6ccccc6)CC5)cc4s3)c(F)c2)C1 [Example 10, hydrochloride]
97

(1) O=C(c1ccc(-c2nc3ccc(C4(c5ccccc5)CC4)nc3s2)c(F)c1)N1CCC1 [Example 105]
(2) O=C(Nc1ccc(-c2nc3ccc(C4(c5ccccc5)CC4)nc3s2)c(F)c1)C(F)(F)F [Example 118]
(3) NC1(c2ccc(-c3nc4ccc(C5(c6ccccc6)CC5)nc4s3)c(F)c2)CC1 [Example 20]
Given 3 compounds, produce a descending ranking by Emax. // respond by listing labels in the order requested
3, 2, 1

###

# Target Desc: hS1P1 receptor (Homo sapiens, UniProt P21453)
# Construct: host or cells: U2OS
# Protocol Text: hS1P1 receptor internalization assay (cell imaging-based, hS1P1-eGFP U2OS cells)
# Study Conditions: 1 h; U2OS cell line expressing hS1P1-eGFP; efficacy (Max); compounds incubated at 37° C. for one hour; read-out: hS1P1 Receptor Internalization (biolimaging) Max (%)
Where a name gives a salt, the structure may show the parent alone.
Property: Emax (%)

# example entries with known answers
Hello, please tell me recorded Emax for this one: "O=C(O)CCS(=O)(=O)Nc1ccc(-c2nc3ccc(C4(c5ccccc5)CC4)nc3s2)c(F)c1"
131

Hello, please tell me recorded Emax for this one: "O=C(O)CN1CCc2cc(-c3nc4ccc(C5(c6ccccc6)CC5)nc4s3)ccc2C1"
106

Hello, please tell me recorded Emax for this one: O=C(O)C1CN(Cc2ccc(-c3nc4ccc(C5(C6CCCCC6)CC5)nc4s3)c(F)c2)C1 [Example 47, trifluoroacetic acid salt]
117

Hello, please tell me recorded Emax for this one: "OC1CN(Cc2ccc(-c3nc4ccc(C5(c6ccccc6)CC5)nc4s3)c(F)c2)C1"
90

Hello, please tell me recorded Emax for this one: "O=C(O)C(=O)NCCc1ccc(-c2nc3ccc(C4(c5ccccc5)CC4)nc3s2)c(F)c1"
107

(a) O=C(O)c1cnn(Cc2ccc(-c3nc4ccc(C5(c6ccccc6)CC5)nc4s3)c(F)c2)c1 [Example 98, hydrochloride]
(b) O=C(O)[C@@H]1C[C@@H](Oc2ccc(-c3nc4ccc(C5(c6ccccc6)CC5)nc4s3)cc2)CN1
Field: lower recorded Emax (choose a or b ) Write down the label attached to your selection.
a
(a: 93%, b: 133%)

(I) O=C(O)C1CN(Cc2ccc(-c3nc4ccc(C5(c6ccccn6)CC5)cc4s3)c(F)c2)C1
(II) Cc1cc(-c2nc3ccc(C4(c5ccccc5)CC4)nc3s2)cc(C)c1CN1CC(C(=O)O)C1
Field: lower recorded Emax (choose I or II ) Write down the label attached to your selection.
I
(I: 98%, II: 148%)

###

# Target Desc: hS1P1 receptor (Homo sapiens, UniProt P21453)
# Construct: host or cells: U2OS
# Protocol Text: hS1P1 receptor internalization assay (cell imaging-based, hS1P1-eGFP U2OS cells)
# Study Conditions: 1 h; U2OS cell line expressing hS1P1-eGFP; efficacy (Max); compounds incubated at 37° C. for one hour; read-out: hS1P1 Receptor Internalization (biolimaging) Max (%)
Counter-ions that a name gives are not always drawn.
Property: Emax (%)

# example entries with known answers
Hello, please tell me recorded Emax for this one: O=C(O)C1(F)CN(Cc2ccc(-c3nc4ccc(C5(c6ccccc6)CC5)nc4s3)c(F)c2)C1 [Example 4, hydrochloride]
121

Hello, please tell me recorded Emax for this one: N[C@H](CC(=O)O)C(=O)Nc1ccc(-c2nc3ccc(C4(c5ccccc5)CC4)nc3s2)c(F)c1 [Example 126, TFA salt]
100

(a) Fc1cc(CCNCc2ccccc2)ccc1-c1nc2ccc(C3(c4ccccc4)CC3)nc2s1
(b) O=C(O)C1(C(=O)O)CC(Cc2ccc(-c3nc4ccc(C5(c6ccccc6)CC5)nc4s3)c(F)c2)C1
Rank a against b by their Emax values and give the higher one. Write down the label attached to your selection.
a

###

# Target Desc: hS1P1 receptor (Homo sapiens)
# Protocol Text: hS1P1 receptor internalization assay (cell imaging-based, hS1P1-eGFP U2OS cells)
# Study Conditions: U2OS cell line expressing hS1P1-eGFP; compounds incubated at 37° C. for one hour; GFP-containing endosomes per cell (ArrayScan); read-out: hS1P1 Receptor Internalization (bioimaging) EC50 IP
Where a name gives a salt, the structure may show the parent alone.
Property: EC50 (nM)

Hello, please tell me recorded EC50 for this one: Nc1cc(CN2CC(C(=O)O)C2)ccc1-c1nc2ccc(C3(c4ccccc4)CC3)nc2s1 [Example 46]
4.8

Hello, please tell me recorded EC50 for this one: O=C(O)CCS(=O)(=O)Nc1ccc(-c2nc3ccc(C4(c5ccccc5)CC4)nc3s2)c(F)c1 [Example 124]
946

Hello, please tell me recorded EC50 for this one: NC(CO)(CCc1ccc(-c2nc3ccc(C4(c5ccccc5)CC4)nc3s2)c(F)c1)COP(=O)(O)O (racemic) [Example 43]
0.3

Hello, please tell me recorded EC50 for this one: O=C(O)[C@@H]1C[C@H](c2ccc(-c3nc4ccc(C5(c6ccccc6)CC5)nc4s3)c(F)c2)CN1 [Example 54, trifluoroacetic acid salt]
4.5

(P) Cc1cc(-c2nc3ccc(C4(c5ccccc5)CC4)nc3s2)cc(C)c1CN1CC(C(=O)O)C1 [Example 17]
(Q) O=C(O)C1CN(Cc2ccc(-c3nc4ccc(C5(c6ccccc6)CC5)cc4s3)c(F)c2)C1 [Example 10, hydrochloride]
(R) c1ccc(C2(c3ccc4nc(-c5ccc6[nH]ccc6c5)sc4n3)CC2)cc1 [Example 136]
Arrange the 3 compounds by rising EC50, starting with the smallest. // respond by listing labels in the order requested
P, Q, R

###

# Target Desc: hS1P1 receptor (Homo sapiens, UniProt P21453)
# Protocol Text: hS1P1 receptor internalization assay (cell imaging-based, hS1P1-eGFP U2OS cells)
# Study Conditions: U2OS cell line expressing hS1P1-eGFP; compounds incubated at 37° C. for one hour; GFP-containing endosomes per cell (ArrayScan); read-out: hS1P1 Receptor Internalization (bioimaging) EC50 IP
# Procedure: The activity of compounds of the invention was determined by a cell imaging-based assay measuring the degree of hS1P1 receptor internalization and a Ca^2+ mobilization assay measuring the level of S1P receptor activation. […] This event was detected by an automated microscope, ArrayScan (Thermo Scientific Cellomics, Pittsburg), and the degree of receptor internalization is quantitated by counting green fluorescent GFP-containing endosomes per cell. […]
Property: EC50 (nM)

(a) O=C(O)C1CN(Cc2ccc(-c3nc4ccc(C5(c6ccccc6)CC5)nc4s3)c(F)c2)C1 [Example 1]
(b) OC1CN(Cc2ccc(-c3nc4ccc(C5(c6ccccc6)CC5)nc4s3)c(F)c2)C1 [Example 35]
(c) CN(CCO)C(=O)c1ccc(-c2nc3ccc(C4(c5ccccc5)CC4)nc3s2)c(F)c1 [Example 109]
(d) OCC(CO)Cc1ccc(-c2nc3ccc(C4(c5ccccc5)CC4)nc3s2)c(F)c1 [Example 29]
Exam item: list the entries in increasing order of EC50. // respond by listing labels in the order requested
a, b, d, c
(a: 2.5 nM, b: 18.7 nM, d: 334 nM, c: 2350 nM)

###

# Target Desc: hS1P1 receptor (Homo sapiens, UniProt P21453)
# Protocol Text: hS1P1 receptor internalization assay (cell imaging-based, hS1P1-eGFP U2OS cells)
# Study Conditions: U2OS cell line expressing hS1P1-eGFP; compounds incubated at 37° C. for one hour; GFP-containing endosomes per cell (ArrayScan); read-out: hS1P1 Receptor Internalization (bioimaging) EC50 IP
Counter-ions that a name gives are not always drawn.
Property: EC50 (µM)

Hello, please tell me recorded EC50 for this one: c1ccc(C2(c3ccc4nc(-c5ccc6c(c5)CCNC6)sc4n3)CC2)cc1 [Example 80]
0.563

Hello, please tell me recorded EC50 for this one: O=C(O)C1CN(Cc2ccc(-c3nc4ccc(C5(c6ccc(O)cc6)CC5)nc4s3)c(F)c2)C1 [Example 39]
0.0212

Hello, please tell me recorded EC50 for this one: O=C(O)CN1CCc2cc(-c3nc4ccc(C5(c6ccccc6)CC5)nc4s3)ccc2C1 [Example 82]
0.0461

(1) O=C(O)CCNC(=O)c1ccc(-c2nc3ccc(C4(c5ccccc5)CC4)nc3s2)c(F)c1 [Example 14]
(2) O=C(O)C1CN(Cc2ccc(-c3nc4ccc(C5(C6CCCCC6)CC5)nc4s3)c(F)c2)C1 [Example 47, trifluoroacetic acid salt]
(3) Fc1cc(CCNCc2ccccc2)ccc1-c1nc2ccc(C3(c4ccccc4)CC3)nc2s1 [Example 60]
(4) NC1(c2ccc(-c3nc4ccc(C5(c6ccccc6)CC5)nc4s3)c(F)c2)CC1 [Example 20]
Given 4 compounds, produce a descending ranking by EC50. // respond by listing labels in the order requested
3, 4, 1, 2
(3: 0.721 µM, 4: 0.0312 µM, 1: 0.0206 µM, 2: 0.0059 µM)
